Biological target: T1, monovalent hVISTA-ECD (human VISTA extracellular domain with His tail) (human, UniProt Q9H7M9 33-193)
T1 construct: analyte flowed over captured antibody; also called huVISTA-His
T1 sequence (Q9H7M9 other isoform, or with tags, fused parts or gaps limits assumed): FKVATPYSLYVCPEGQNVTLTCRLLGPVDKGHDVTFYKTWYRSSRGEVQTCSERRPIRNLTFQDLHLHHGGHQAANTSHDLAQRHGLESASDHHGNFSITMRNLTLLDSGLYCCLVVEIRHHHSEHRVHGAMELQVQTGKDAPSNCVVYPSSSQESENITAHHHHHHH
Test: SPR, pH 6.0
Could you label it rule met if measured kd improvement vs parent is 80 fold or higher, and rule not met otherwise?

P1-064490 (41F11_VH_F27EY50EL96E) (antibody, V domains shown, Kabat positions; also called P1-064490-1; P1-064490-2) VH: QVQLVESGGGLVKPGGSLRLSCAASGETFSDYYMSWIRQAPGKGLEWVSEISNSGSPIYYADSVKGRFTISRDNAKNSLYLQMNSLRAEDTAVYYCARDEPGWYFDLWGRGTLVTVSS VL: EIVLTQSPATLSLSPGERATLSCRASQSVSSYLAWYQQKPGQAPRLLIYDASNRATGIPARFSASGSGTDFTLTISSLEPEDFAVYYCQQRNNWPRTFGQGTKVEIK; rule not met
P1-063125 (41F11_HC_Mutant: T28P/Y50W/S55E/Y100E) (antibody, V domains shown, Kabat positions; also called P1-063125-5) VH: QVQLVESGGGLVKPGGSLRLSCAASGFPFSDYYMSWIRQAPGKGLEWVSWISNSGEPIYYADSVKGRFTISRDNAKNSLYLQMNSLRAEDTAVYYCARDLPGWEFDLWGRGTLVTVSS VL: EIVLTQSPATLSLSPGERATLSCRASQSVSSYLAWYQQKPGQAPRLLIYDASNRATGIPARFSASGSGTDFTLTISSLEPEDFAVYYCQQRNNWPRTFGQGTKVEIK; rule met

Kindly review the next binder as well.
Quick check: does P1-061528 (41F11 NGS mut VK_A64G/R91A) (antibody, V domains shown, also called P1-061528-2) VH: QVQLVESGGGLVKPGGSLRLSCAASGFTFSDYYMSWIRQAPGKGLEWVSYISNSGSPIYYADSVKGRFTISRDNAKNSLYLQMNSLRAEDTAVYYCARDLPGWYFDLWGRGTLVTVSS VL: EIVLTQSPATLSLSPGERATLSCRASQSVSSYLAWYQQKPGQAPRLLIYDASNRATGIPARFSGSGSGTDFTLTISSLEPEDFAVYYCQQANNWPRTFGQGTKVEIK have kd improvement vs parent greater than or equal to 80 fold?
rule not met

Origin of measurements: patent US20220073617A1
